- Tested on: IGROV-1
- ASSAY PROCEDURE: NCI tumour cell line growth inhibition, 48 h
The source made the active and inactive calls. Cut-off read from the data, not from the text of the source: active = GI50 up to about 1.1 µM and inactive = higher.
PROPERTY: GI50

{"COMPOUND": "CN(C)CCc1ccc(Cl)cc1Cl", "REPORTED RESULT": "> 100 µM (inactive)"}
{"COMPOUND": "CCOc1ccc2c(c1)[n+]([O-])c(-c1ccccc1Cl)c(N)[n+]2[O-]", "REPORTED RESULT": "> 100 µM (inactive)"}
{"COMPOUND": "COc1ccc(C(C#N)NCCCCCCNC(C#N)c2ccc(OC)cc2)cc1 (stereo not given)", "REPORTED RESULT": "> 100 µM (inactive)"}
{"COMPOUND": "Cc1ccc(-n2c(N)c(C#N)c3[nH]nc(N)c3c2=O)cc1", "REPORTED RESULT": "> 100 µM (inactive)"}
{"COMPOUND": "O=C(C[n+]1ccccc1)N/N=C(\\C(=O)NC1=C(Cl)C(=O)c2ccccc2C1=O)c1c(O)c2ccc(O)cc2oc1=O", "REPORTED RESULT": "2.41 µM (inactive)"}
{"COMPOUND": "COc1ccc(C(=O)C(c2ccc(OC)cc2)C2C(=O)Oc3ccccc32)cc1 (stereo not given)", "REPORTED RESULT": "> 10 µM (inactive)"}
{"COMPOUND": "CC(C(O)c1ccccc1)C(O)(C(F)(F)F)C(F)(F)F (stereo not given)", "REPORTED RESULT": "84.5 µM (inactive)"}
{"COMPOUND": "N#CCCc1nc2ccc(Br)cc2c(=O)n1-c1ccc(O)c([N+](=O)[O-])c1", "REPORTED RESULT": "20.6 µM (inactive)"}
{"COMPOUND": "CCCCCCCCOCC(O)COC(C)C (stereo not given)", "REPORTED RESULT": "> 100 µM (inactive)"}
{"COMPOUND": "COC(=O)/C(=N/O)C(C(=O)OC)C(=O)C(=O)Nc1c(Cl)cc(C)cc1S(=O)(=O)O (stereo not given)", "REPORTED RESULT": "> 100 µM (inactive)"}

====

- Tested on: NCI-H522
- ASSAY PROCEDURE: NCI tumour cell line growth inhibition, 48 h
Calls of active or inactive are those of the source. No stated cut-off is given here; in the data, active = GI50 up to about 1.1 µM and inactive = higher.
Recorded GI50, one value per entry.

{"COMPOUND": "CN(C)CCc1ccc(Cl)cc1Cl", "GI50": "> 100 µM (inactive)"}
{"COMPOUND": "O=Cc1ccc2ccocc1-2", "GI50": "> 100 µM (inactive)"}
{"COMPOUND": "COc1cc2c(cc1OCCCCCCCCN1C(=O)c3cccc4cccc(c34)C1=O)N=C[C@@H]1CCCN1C2=O", "GI50": "12 µM (inactive)"}
{"COMPOUND": "Nc1nc(Cl)cc(NCC2(CO)CC(O)C2)n1 (stereo unspecified)", "GI50": "> 100 µM (inactive)"}
{"COMPOUND": "COc1c2c(c3c(c1C1OC(C)[C@@H](C)O1)CC(C)(C)O3)C(=O)c1ccccc1C2=O (stereo partly specified)", "GI50": "> 10 µM (inactive)"}
{"COMPOUND": "Cc1ccc(F)cc1NC(=O)O/N=C(\\Cl)C(C)C", "GI50": "0.791 µM (active)"}
{"COMPOUND": "O=C(CCc1cccc(O)c1)NCCc1cccc(OCc2ccccc2)c1", "GI50": "17.1 µM (inactive)"}
{"COMPOUND": "COC(=O)CNC(=O)Nc1cc(N2C(=O)ON3C2C(C)(C)N(O)C3(C)C)ccc1C (stereo unspecified)", "GI50": "> 100 µM (inactive)"}
{"COMPOUND": "COc1ccc2oc(C(=O)O)c3c2c1CCC3CCC(=O)O (stereo unspecified)", "GI50": "> 100 µM (inactive)"}
{"COMPOUND": "CCOC1=CP(=O)(OCC)CC(C)=C1Cl (stereo unspecified)", "GI50": "> 100 µM (inactive)"}
{"COMPOUND": "CN(C)/C=N/c1ccc2c3c(cccc13)-c1ccccc1-2", "GI50": "3.66 µM (inactive)"}

====

Recorded GI50, one value per entry.
- System: ACHN
- ASSAY PROCEDURE: NCI tumour cell line growth inhibition, 48 h
The source made the active and inactive calls. Cut-off read from the data, not from the text of the source: active = GI50 up to about 1.1 µM and inactive = higher.

{"MOLECULE": "COc1ccc2oc(=O)c(-c3cc4c(c(C)n3)c(=O)oc3ccc(OC)cc34)cc2c1", "GI50": "27.2 µM (inactive)"}
{"MOLECULE": "CC(C)(C)/N=C1\\C(=O)C2(C)CCC1C2(C)C (centres undefined)", "GI50": "> 100 µM (inactive)"}
{"MOLECULE": "Cc1ccc(C(=O)Nc2ccc(S(=O)(=O)O)c3cc(S(=O)(=O)O)cc(S(=O)(=O)O)c23)cc1NC(=S)Nc1cc(C(=O)Nc2ccc(S(=O)(=O)O)c3cc(S(=O)(=O)O)cc(S(=O)(=O)O)c23)ccc1C", "GI50": "> 75 µM (inactive)"}
{"MOLECULE": "COc1ccc(-c2nc(-c3cc4c(ccc5ccccc54)oc3=O)cs2)cc1", "GI50": "> 100 µM (inactive)"}

====

- Tested on: K562
- ASSAY PROCEDURE: NCI tumour cell line growth inhibition, 48 h
The source made the active and inactive calls. No stated cut-off is given here; in the data, active = GI50 up to about 1.1 µM and inactive = higher.
Recorded GI50, one value per entry.
PROPERTY: GI50

{"COMPOUND": "Nc1ccc(/C=C/c2ccc3cccnc3c2)cc1", "REPORTED RESULT": "> 100 µM (inactive)"}
{"COMPOUND": "CC1(c2cc3c(cc2Br)OCO3)SCCCS1", "REPORTED RESULT": "31 µM (inactive)"}
{"COMPOUND": "COc1c(O)cc(O)c2c(=O)cc(-c3ccccc3)oc12", "REPORTED RESULT": "25.1 µM (inactive)"}
{"COMPOUND": "Cc1ccccc1C(=O)c1c(O)c2c(c(O)c1Br)CCCC2", "REPORTED RESULT": "21.1 µM (inactive)"}
{"COMPOUND": "CC1OC=CC(=O)C1O (stereo unspecified)", "REPORTED RESULT": "> 100 µM (inactive)"}
{"COMPOUND": "O=C(CNc1ccc(Cl)cc1Cl)NC1C=Cc2ccc(S(=O)(=O)Nc3ccc(Cl)cc3Cl)cc2C1=O (stereo unspecified)", "REPORTED RESULT": "> 100 µM (inactive)"}
{"COMPOUND": "CCCCCCC(O)C(=O)OC1C2C(CC1(C)C)C(O)C13OC1C(O)C1(CO1)[C@@]23C (stereo partly specified)", "REPORTED RESULT": "30.3 µM (inactive)"}
{"COMPOUND": "COc1cc2c(cc1OCCCCCCCCN1C(=O)c3cccc4cccc(c34)C1=O)N=C[C@@H]1CCCN1C2=O", "REPORTED RESULT": "3.87 µM (inactive)"}
{"COMPOUND": "CCCCCCCC(=O)OCC(COC(=O)C(C)(C)C)OC(=O)Cc1ccccc1 (stereo unspecified)", "REPORTED RESULT": "> 100 µM (inactive)"}
{"COMPOUND": "CCOC(=O)c1ccc2c(c1)nc1n2C(c2c(F)cccc2F)SC1 (stereo unspecified)", "REPORTED RESULT": "29.1 µM (inactive)"}
{"COMPOUND": "COc1ccc2nc(C)cc(NCCCCCCCCCNc3cc(C)nc4ccc(OC)cc34)c2c1", "REPORTED RESULT": "0.264 µM (active)"}

====

- System: MOLT-4
- ASSAY PROCEDURE: NCI tumour cell line growth inhibition, 48 h
The source made the active and inactive calls. Cut-off read from the data, not from the text of the source: active = GI50 up to about 1.1 µM and inactive = higher.
Outcome codes: active, inactive

{"COMPOUND": "CCCCCCCC/C=C\\CCCCCCCC(=O)NCCN(CCN)C(=O)CCCCCCC/C=C\\CCCCCCCC", "ASSAY SYSTEM": "MOLT-4", "ASSIGNED CLASS": "inactive"}
{"COMPOUND": "CC(C)(Cl)C(Br)CC/C(CBr)=C(/Cl)CCl.CC(C)(Cl)C(Br)CC/C(CBr)=C(\\Cl)CCl (stereo not given)", "ASSAY SYSTEM": "MOLT-4", "ASSIGNED CLASS": "active"}
{"COMPOUND": "Cc1cn(CCCCCCC2=NCCCN2)c(=O)[nH]c1=O", "ASSAY SYSTEM": "MOLT-4", "ASSIGNED CLASS": "inactive"}
{"COMPOUND": "Cc1ccc(C2=Nc3cccc4cccc(c34)N2)cc1", "ASSAY SYSTEM": "MOLT-4", "ASSIGNED CLASS": "inactive"}
{"COMPOUND": "COC(=O)Nc1nc2cc(S(=O)(=O)n3nnc4ccccc43)ccc2[nH]1", "ASSAY SYSTEM": "MOLT-4", "ASSIGNED CLASS": "inactive"}
{"COMPOUND": "C/C(=N\\NC(=S)N1CCN(C)CC1)c1nc2cccnc2[nH]1", "ASSAY SYSTEM": "MOLT-4", "ASSIGNED CLASS": "inactive"}
{"COMPOUND": "COC(=O)[C@@]1(C)CCC[C@]2(C(=O)O)C3Cc4occc4[C@H](C)[C@@H]3CCC21 (stereo not given in full)", "ASSAY SYSTEM": "MOLT-4", "ASSIGNED CLASS": "inactive"}
{"COMPOUND": "Cc1cc(Cl)ccc1NC(=O)C1C(=O)C(=O)N(c2ccc(Cl)cc2C)C1=O (stereo not given)", "ASSAY SYSTEM": "MOLT-4", "ASSIGNED CLASS": "inactive"}
{"COMPOUND": "COC(=O)[C@H](CC(C)C)NC1=C(Cl)C(=O)c2c(O)ccc(O)c2C1=O", "ASSAY SYSTEM": "MOLT-4", "ASSIGNED CLASS": "inactive"}
{"COMPOUND": "O=C(Cc1ccccc1)Oc1ccc2c(-c3ccccc3)c(C(=O)Nc3ccc(Cl)cc3)c(=O)oc2c1", "ASSAY SYSTEM": "MOLT-4", "ASSIGNED CLASS": "inactive"}
